The measured values listed here are drawn from patent US7879881B2.

target.under.test: human purified αVβ5 (Homo sapiens, UniProt P06756+P18084)
Construct: purchased Chemicon International, Inc
Sequence (P06756 31-889 limits assumed): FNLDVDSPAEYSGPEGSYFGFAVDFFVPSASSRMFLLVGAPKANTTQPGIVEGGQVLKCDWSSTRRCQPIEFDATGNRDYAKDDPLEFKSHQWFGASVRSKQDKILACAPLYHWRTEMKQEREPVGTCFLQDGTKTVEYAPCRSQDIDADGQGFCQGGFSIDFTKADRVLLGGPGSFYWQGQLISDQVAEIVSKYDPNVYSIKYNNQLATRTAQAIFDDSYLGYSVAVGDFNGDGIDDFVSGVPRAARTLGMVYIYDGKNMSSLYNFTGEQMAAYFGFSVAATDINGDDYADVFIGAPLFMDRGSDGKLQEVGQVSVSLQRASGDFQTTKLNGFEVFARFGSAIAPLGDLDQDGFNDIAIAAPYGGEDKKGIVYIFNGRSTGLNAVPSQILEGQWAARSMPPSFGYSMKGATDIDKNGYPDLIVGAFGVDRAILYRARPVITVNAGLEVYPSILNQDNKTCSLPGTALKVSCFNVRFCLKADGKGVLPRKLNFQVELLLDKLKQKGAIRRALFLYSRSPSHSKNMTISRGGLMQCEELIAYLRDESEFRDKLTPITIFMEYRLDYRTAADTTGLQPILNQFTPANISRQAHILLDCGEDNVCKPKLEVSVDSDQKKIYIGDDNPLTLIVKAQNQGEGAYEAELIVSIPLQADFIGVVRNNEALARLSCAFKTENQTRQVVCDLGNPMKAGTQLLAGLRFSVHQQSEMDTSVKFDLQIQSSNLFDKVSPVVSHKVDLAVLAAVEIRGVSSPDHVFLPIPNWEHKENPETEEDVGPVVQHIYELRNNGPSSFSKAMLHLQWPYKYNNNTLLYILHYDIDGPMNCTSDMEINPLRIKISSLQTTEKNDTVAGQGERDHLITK
Sequence (P06756 891-1048 partner limits assumed): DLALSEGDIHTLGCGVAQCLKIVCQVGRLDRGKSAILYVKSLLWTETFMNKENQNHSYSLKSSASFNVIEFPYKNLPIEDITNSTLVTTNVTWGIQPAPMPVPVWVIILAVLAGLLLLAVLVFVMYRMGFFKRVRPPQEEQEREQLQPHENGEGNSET
Sequence (P18084 24-799): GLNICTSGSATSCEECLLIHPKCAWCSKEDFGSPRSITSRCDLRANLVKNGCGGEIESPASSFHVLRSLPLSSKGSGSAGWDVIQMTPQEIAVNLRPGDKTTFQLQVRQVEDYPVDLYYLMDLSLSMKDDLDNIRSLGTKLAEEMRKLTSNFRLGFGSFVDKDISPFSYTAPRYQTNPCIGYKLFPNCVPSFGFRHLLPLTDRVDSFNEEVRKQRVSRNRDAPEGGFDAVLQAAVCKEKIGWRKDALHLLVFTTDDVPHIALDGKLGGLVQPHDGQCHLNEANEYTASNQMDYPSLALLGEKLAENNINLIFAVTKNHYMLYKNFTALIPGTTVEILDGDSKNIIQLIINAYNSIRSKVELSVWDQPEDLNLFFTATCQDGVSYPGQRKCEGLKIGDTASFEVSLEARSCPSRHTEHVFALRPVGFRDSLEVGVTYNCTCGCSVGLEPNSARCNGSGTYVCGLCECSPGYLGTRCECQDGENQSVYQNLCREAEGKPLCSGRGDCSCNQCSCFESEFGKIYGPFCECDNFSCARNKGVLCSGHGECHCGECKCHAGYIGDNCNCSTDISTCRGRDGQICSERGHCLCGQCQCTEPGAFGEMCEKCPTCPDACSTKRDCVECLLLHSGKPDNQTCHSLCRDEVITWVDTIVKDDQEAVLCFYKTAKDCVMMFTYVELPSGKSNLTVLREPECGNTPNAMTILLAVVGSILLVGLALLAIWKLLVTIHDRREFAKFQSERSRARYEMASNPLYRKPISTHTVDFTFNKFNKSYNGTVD
experiment: In Vitro Solid Phase Purified αcβ5 Binding Assay (vitronectin/αVβ5)
recorded.conditions: vitronectin binding to immobilized purified human αVβ5; mean ± spread; read-out: αvβ5 IC50
pIC50: −log10 of the molar value.
parameter.measured: pIC50

COc1ccc(C(CCC2CCN(C(=O)CCc3ccc4c(n3)NCCC4)CC2)CC(=O)O)cn1 (single isomer, unassigned) [Cpd 21b] | 6.55

(A) O=C(O)CC(CC1CCN(C(=O)CCc2ccc3c(n2)NCCC3)CC1)c1ccc(OC(F)(F)F)cc1 (stereo not shown) [Cpd 40]
(B) O=C(O)CC(CC1CCN(C(=O)CCc2ccc3c(n2)NCCC3)CC1)c1cccc(F)c1 (single isomer, unassigned) [Cpd 30b]
Query :: Returns: the label, A or B , whose recorded pIC50 is the lower number. Reply with the label of the item you choose.
Result :: A
